tested on: CCRIS mutagenicity, Ames/micronucleus/aberration tests; test: CCRIS mutagenicity studies; details: Test System: AMES SALMONELLA TYPHIMURIUM; Strain/Indicator: TA1535; Metabolic Activation: RAT, LIVER, S-9, AROCLOR 1254 (10%); Method: PREINCUBATION
The source made the active and inactive calls. No rule for the calls is given here.
Classes to choose from: active, inactive

Before answering, review these 6 worked examples.
Per the records of this test, what outcome belongs to CN(C)CCCN ?
inactive

Tell me the assay call for OCC(Cl)CCl (stereo not given) please.
active

Recorded test outcome, item O=C(Cl)c1ccc([N+](=O)[O-])cc1
active

Dear all, I need the recorded test outcome for CC(C)CC(C)N (stereo not given) , thank you.
inactive

Which outcome did this test record for the molecule CC(N)CN (stereo not given) ?
inactive

Could you kindly confirm the outcome this assay logged for Nc1cc(Cl)ccc1Cl ?
inactive

---
Please share the test call associated with O=S(=O)(O)c1ccc(N=Nc2c(O)ccc3cc(S(=O)(=O)O)ccc23)cc1 .
inactive

Could you please tell me the result logged for Cc1cc(Cl)ccc1O in this assay?
inactive

Test call for this molecule, please: O=C1c2ccccc2C(=O)C1(O)O
inactive

Query: recorded result category for C/C=C1\CC2C=CC1C2 (stereo not given) in this test
inactive

What call does the record list for Cc1cc(C)n(-c2nnc(NN)c3c2[nH]c2ccccc23)n1 ?
inactive

* * *

tested on: CCRIS mutagenicity, Ames/micronucleus/aberration tests; assay: CCRIS mutagenicity studies; settings: Test System: AMES SALMONELLA TYPHIMURIUM; Strain/Indicator: TA100; Metabolic Activation: RAT, LIVER, S-9, AROCLOR 1254 (10%); Method: PREINCUBATION
The source made the active and inactive calls. How the calls were made is not given here.
Choose the fitting class; nothing outside 1 (yes) = active, 0 (no) = inactive is accepted.

Status in this test for ClC(Cl)(Cl)C1CO1 (configuration not stated) ?
1 (yes)

Can you look up the reported call for C=CCOC(=O)c1ccccc1N for me?
0 (no)

Outcome logged for O=C/C=C/c1ccco1 in this assay:
0 (no)

Next:
// param item: O=C1OC(=O)c2cc([N+](=O)[O-])ccc21 ; yields the recorded call
0 (no)

# fetch the recorded call for O=C(O)c1ccc(/C=N/n2nnc3c([nH]c4ccccc43)c2=O)cc1 here
1 (yes)

What did the test return for COc1cc2c(cc1OC)[C@@]13CCN4CC5=CCO[C@H]6CC(=O)N2[C@H]1[C@H]6[C@H]5C[C@H]43 ?
0 (no)

Which result was noted for this molecule in the test: ClCC(Br)CBr (configuration not stated)
1 (yes)

Which result was noted for this molecule in the test: CN(C)c1ccc(N=NS(=O)(=O)O)cc1
1 (yes)

* * *

system: CCRIS mutagenicity, Ames/micronucleus/aberration tests; assay: CCRIS mutagenicity studies; details: Test System: AMES SALMONELLA TYPHIMURIUM; Strain/Indicator: TA1535; Metabolic Activation: HAMSTER, LIVER, S-9; Method: STANDARD PLATE
The source made the active and inactive calls. The rule behind the calls is not given here.
# output must be one of active, inactive

Lab log entry: CC(=O)Nc1ccc(C(=O)CCl)cc1 — outcome as called in the assay?
inactive

Lab log entry: CCN(N=O)c1ccccc1 — outcome as called in the assay?
inactive

Write down the call the test reported for this compound. Item: Nc1ncc([N+](=O)[O-])s1
inactive

Identify the outcome logged in this assay for the compound shown: COc1ccc(N)c(OC)c1
inactive

Next, consider the following compound.
# fetch the recorded call for CN(C)CCN(C)N=O here
active

* * *

test system: CCRIS mutagenicity, Ames/micronucleus/aberration tests; assay: CCRIS mutagenicity studies; conditions: Test System: AMES SALMONELLA TYPHIMURIUM; Strain/Indicator: TA1537; Metabolic Activation: NONE; Method: STANDARD PLATE
Activity calls are given as the source filed them. No rule for the calls is given here.
The reply should be one of these categories: active, inactive

What did this assay record as the result for CCc1cccc2c(CCO)c[nH]c12 ?
inactive

What call does the record list for COc1cccc2c(NCCCNCCCl)c3ccccc3nc12 ?
active

Others:
Any idea what this test logged for O=C(O)C(=O)Nc1cccc(-c2nn[nH]n2)c1 ?
inactive

Outcome logged for [N-]=[N+]=Nc1ccc(Nc2c3ccccc3nc3ccccc23)cc1 in this assay:
active

Answer briefly: the call reported for CCOC(=O)C1(CCCCCCOCc2cccs2)CO1 (stereo not given) in this assay.
inactive

Dear all, I need the recorded test outcome for Cc1cc(O)c2c(c1)C(=O)c1cc(O)c(O)c(O)c1C2=O , thank you.
inactive

Hello, I am checking results. What call was entered for Cc1ccc2nsc(NC(=O)C(Cl)Cl)c2c1 ?
active

Field: outcome | Entry: Cc1cc([N+](=O)[O-])c(C)c2c1[nH]c1ccccc12
inactive

Recorded test call requested for CN1CCC=C2c3nc(N)sc3CCC21 (stereo not given)
inactive

Could you kindly confirm the outcome this assay logged for C1OCOCO1 ?
inactive

Hey, what did the test say about Oc1ccccc1-c1ccccc1 ?
inactive

Give the logged outcome of this assay for the following compound: CNc1ccc(N(CCO)CCO)cc1[N+](=O)[O-]
inactive

* * *

Tested on: CCRIS mutagenicity, Ames/micronucleus/aberration tests
Experiment: CCRIS mutagenicity studies
Conditions: Test System: AMES SALMONELLA TYPHIMURIUM; Strain/Indicator: TA98; Metabolic Activation: NONE; Method: STANDARD PLATE
Excerpt: The CCRIS database contains chemical records with carcinogenicity, mutagenicity, tumor promotion, and tumor inhibition test results. It was developed by the National Cancer Institute (NCI). Data are derived from studies cited in primary journals, current awareness tools, NCI reports, and other sources. Test results have been reviewed by experts in carcinogenesis and mutagenesis. CCRIS provides historical information from the years 1985 - 2011. It is no longer updated. […]
Active and inactive are the calls of the source. No rule for the calls is given here.
Parameter: mutagenic call

Known mutagenic call results, listed for orientation:
Specify reported mutagenic call for the molecule shown: COC1=CC(=O)c2c(nc(C)c3c4c([nH]c23)CCCC4)C1=O
active; positive

Tell us which mutagenic call value is on record for CC(=O)ON(C(C)=O)c1ccc(Sc2ccccc2)cc1
active; positive

Determine its reported mutagenic call: Cc1cncc(C)c1.Cc1cncc(C)c1.[Cl][Pt][Cl]
active; positive

Supply mutagenic call value. Item: CC(C)(c1ccc(OP(O)O)cc1)c1ccc(OP(O)O)cc1
inactive; negative

Attention now turns to another entry.
Given the molecule CN(N=O)C(=O)c1c(N(C)N=O)ncn1C , write its reported mutagenic call.
inactive; negative

* * *

test system: CCRIS mutagenicity, Ames/micronucleus/aberration tests; assay: CCRIS mutagenicity studies; conditions: Test System: AMES SALMONELLA TYPHIMURIUM; Strain/Indicator: TA98; Metabolic Activation: RAT, LIVER, S-9; Method: STANDARD PLATE
The source made the active and inactive calls. How the calls were made is not given here.
Parameter call: string, one of 1.0 = active, 0.0 = inactive

The following molecules have reported results that may help.
Called result for Cc1cc2ncccc2c2nc(N)n(C)c12
1.0

Name the outcome recorded for C[C@H]1CCCC(=O)CCC/C=C/c2cc(O)cc(O)c2C(=O)O1 in the assay.
0.0

Could you kindly confirm the outcome this assay logged for CC(=O)Nc1nc2c3cccnc3cc(C)c2n1C ?
1.0

Short answer needed: outcome of this test for CCCCCC/C=C\CCCCCCOC(C)=O ?
0.0

Tell me the assay call for OC[C@H]1OC(O[C@H]2[C@H](O)[C@@H](O)C(O[C@H]3[C@H](O)[C@@H](O)[C@@H](O)O[C@@H]3CO)O[C@@H]2CO)[C@H](O)[C@@H](O)[C@@H]1O (stereo not given in full) please.
0.0

Please let me know the test result on file for C[C@H]1CCC[C@H](O)CCCCCc2cc(O)cc(O)c2C(=O)O1 .
0.0

# outcome recorded in this test, key = CCc1cccc2c(CCO)c[nH]c12
0.0

Identify the outcome logged in this assay for the molecule shown: CCOC(=O)C1=C(C)NC(C)=C(C(=O)OCC2COC3(CCCC3)O2)C1c1cccc(Cl)c1 (stereo not given)
0.0

---
In this assay, the call recorded for COC1=CC=CC=CC1 was what?
0.0

Hey, what did the test say about Nc1ncc([N+](=O)[O-])s1 ?
0.0

* * *

system: CCRIS mutagenicity, Ames/micronucleus/aberration tests; assay: CCRIS mutagenicity studies; conditions: Test System: AMES SALMONELLA TYPHIMURIUM; Strain/Indicator: TA98; Metabolic Activation: NONE; Method: STANDARD PLATE
Activity calls are given as the source filed them. No rule for the calls is given here.
Give one outcome, nothing more. List: 1 (yes) for active, 0 (no) for inactive

Below, 8 compounds whose answers are already recorded.
# lookup: test call for Nc1ccc(-c2ccc(N)c(F)c2)cc1F
1 (yes)

Test call, this compound: Nc1ccc(N=Nc2ccc3c(c2)C(=O)/C(=N/Nc2ccc(Nc4ccc(N/N=C5/C(=O)c6cc(N=Nc7ccc(N)cc7N)ccc6C=C5S(=O)(=O)O)cc4S(=O)(=O)O)cc2)C(S(=O)(=O)O)=C3)c(N)c1
1 (yes)

Recorded test call requested for CC1(OO)c2ccccc2-c2ccccc21
1 (yes)

Please let me know the test result on file for C=CCN(CC=C)CCN(CC=C)CC=C.[Cl-].[Cl-].[Pd+2] .
0 (no)

Please let me know the test result on file for CN(C)C(=O)c1nc2n(n1)-c1ccc(Cl)cc1C(c1ccccc1Cl)=NC2 .
0 (no)

Call for entry CSCCC(=O)N1[C@@H](c2ccccc2O)SC[C@H]1C(=O)O :
0 (no)

Please share the test call associated with Cc1ccc2cc3ccccc3cc2c1 .
0 (no)

Outcome? Cc1ccc(C)o1
0 (no)

Others:
Record request — test call for [Cu+2].[O-]c1cccc2cccnc12.[O-]c1cccc2cccnc12
0 (no)

Assay result, entry ClC(Cl)=C(Cl)c1ccc(Cl)c(Cl)c1Cl — outcome?
0 (no)

Outcome logged for C1=Cc2cc3ccccc3c3cccc1c23 in this assay:
0 (no)
